Experiment: inhibitors of Sendai virus-induced IRF3 signaling, primary screen, TLR/RLR signaling modifier project, cell-based, Sendai virus stimulus, luciferase, 10K MLSCN set (AID 602276);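 note: firefly luciferase from ISG56 promoter only with Renilla not read in this screen; 0% = Sendai virus plus DMSO and 100% = medium plus DMSO without virus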
Details: HEK293 RL24 IRF3 luciferase reporter, at 10 µM, active compounds read high
MEASURE: inhibition (%)
Give a bare numeral; the unit % is implied.

INPUT: Quote inhibition reported for O=C(O)C1CCCN(S(=O)(=O)c2ccc(Cl)s2)C1 (stereo unspecified) please.
OUTPUT: 10.1

INPUT: Quote inhibition reported for COc1cccc(-c2cc(C(=O)N3CCCCCC3)no2)c1 please.
OUTPUT: -24.6

INPUT: Quote inhibition reported for O=C(NCCC1=CCCCC1)C1CCN(C(=O)Nc2ccccc2)CC1 please.
OUTPUT: 2.99

INPUT: Quote inhibition reported for CC(C)OC(=O)c1cccc(C(=O)O)n1 please.
OUTPUT: 11.6

INPUT: Quote inhibition reported for Cc1nc(NCc2ccco2)c2oc3ccccc3c2n1 please.
OUTPUT: 3.36

INPUT: Quote inhibition reported for CC12CN3CC(C)(CN(C1)C3c1cc(Br)ccc1O)C2=O (stereo unspecified) please.
OUTPUT: 3.76

INPUT: Quote inhibition reported for COc1ccc(C(=O)NCc2nnc(SCC(=O)Nc3cc(C)cc(C)c3)o2)cc1OC please.
OUTPUT: 9

INPUT: Quote inhibition reported for CCC(c1nnnn1C(C)(C)C)N1CCN(C2CCCC2)CC1 (stereo unspecified) please.
OUTPUT: 16.1

INPUT: Quote inhibition reported for CCOC(=O)/N=C(/NC(=O)Nc1ccc(C(=O)OCC)cc1)OC please.
OUTPUT: 13.9

INPUT: Quote inhibition reported for COC(=O)c1ccc(NC(=O)CN2CCCC2)cc1 please.
OUTPUT: 9.14

INPUT: Quote inhibition reported for O=C(C1CC1)N1CCc2cc(Br)cc(S(=O)(=O)N3CCOCC3)c21 please.
OUTPUT: 15.4

INPUT: Quote inhibition reported for C=CCOc1ccc(C2/C(=C(\O)c3c(C)[nH]c(C(=O)OC)c3C)C(=O)C(=O)N2CCN(C)C)cc1 (stereo unspecified) please.
OUTPUT: 13.2

INPUT: Quote inhibition reported for Cc1ccc(S(=O)(=O)Nc2cc(C(=O)O)ccc2N2CCCCC2)cc1 please.
OUTPUT: 11.2

INPUT: Quote inhibition reported for COc1cccc(C2CC(=O)Nc3c2c(=O)n(C)c(=O)n3C)c1OC (stereo unspecified) please.
OUTPUT: -4.94

INPUT: Quote inhibition reported for COc1ccccc1CNS(=O)(=O)c1ccc(NC(C)=O)cc1 please.
OUTPUT: 6.03

INPUT: Quote inhibition reported for Cc1ccc(S(=O)(=O)N2CCN(S(=O)(=O)N(C)C)CC2)cc1 please.
OUTPUT: 12.1

INPUT: Quote inhibition reported for O=c1c2cc(N3CCOCC3)ccc2[nH]c(=S)n1CCCN1CCCC1 please.
OUTPUT: 3.61

INPUT: Quote inhibition reported for COc1ccc(-c2nnnn2C)cc1S(=O)(=O)NCc1ccccc1 please.
OUTPUT: 10.3

INPUT: Quote inhibition reported for CCCc1nnc2n1N=C(c1ccc(-c3cc(Cl)ccc3Cl)o1)CS2 please.
OUTPUT: 8.08

INPUT: Quote inhibition reported for CCN(Cc1nc2ccccc2c(=O)[nH]1)Cc1cc(=O)oc2cc(C)c(C)cc12 please.
OUTPUT: 5.41

INPUT: Quote inhibition reported for CS(=O)(=O)N(Cc1ccco1)CC(O)Cn1c2ccccc2c2ccccc21 (stereo unspecified) please.
OUTPUT: 13.7

INPUT: Quote inhibition reported for Cc1c(C(=O)NCCC2=CCCCC2)oc2ccc(S(=O)(=O)N3CCC4(CC3)OCCO4)cc12 please.
OUTPUT: 16.2

INPUT: Quote inhibition reported for COC(=O)c1c(N)sc(C(=O)N2CCOCC2)c1C please.
OUTPUT: -4.15

INPUT: Quote inhibition reported for Cc1nc2ccc(C(=O)c3ccccc3)cc2[nH]1 please.
OUTPUT: -30.7

INPUT: Quote inhibition reported for Cc1cc(NC(=O)CSc2nccn2-c2ccc(F)cc2)no1 please.
OUTPUT: 13.6

INPUT: Quote inhibition reported for O=C(Nc1ccc(N2CCCCC2)cc1)c1ccc(F)cc1 please.
OUTPUT: -44.9

INPUT: Quote inhibition reported for COc1cccc(/C=N/n2c(C)nc3ccccc32)c1OC please.
OUTPUT: -7.57

INPUT: Quote inhibition reported for O=C(C1CCCCC1)N1CCC(c2nc3c(nnn3Cc3ccccc3Cl)c(=O)[nH]2)CC1 please.
OUTPUT: 11.3

INPUT: Quote inhibition reported for Cc1noc(C)c1CSc1nnc2scc(-c3ccc(Cl)cc3)n12 please.
OUTPUT: -1.42

INPUT: Quote inhibition reported for O=C1c2ccccc2S(=O)(=O)N1CC(O)Cn1c2ccccc2c2ccccc21 (stereo unspecified) please.
OUTPUT: 5.13

INPUT: Quote inhibition reported for COc1ccc(NC(=O)CN(c2ccc(C)cc2)S(C)(=O)=O)c(OC)c1 please.
OUTPUT: 4.75

INPUT: Quote inhibition reported for COc1ccc(N(CC(=O)O)S(=O)(=O)c2ccc(OC)c(OC)c2)cc1 please.
OUTPUT: 15.4

INPUT: Quote inhibition reported for C=C(Cl)COc1ccc2c(C)cc(=O)oc2c1 please.
OUTPUT: -24.5

INPUT: Quote inhibition reported for O=C(CCOc1ccccc1)NCc1ccccc1 please.
OUTPUT: 11.5

INPUT: Quote inhibition reported for CCOC(=O)Cc1c(C)c2c(O)cc(O)cc2oc1=O please.
OUTPUT: 15.2

INPUT: Quote inhibition reported for O=C(NCC1CCCO1)c1ccccc1-c1nc(-c2ccc(Cl)cc2)no1 (stereo unspecified) please.
OUTPUT: -17.2

INPUT: Quote inhibition reported for CCc1cccc(NC(=O)CCc2nc(-c3cccs3)no2)c1 please.
OUTPUT: -5.35

INPUT: Quote inhibition reported for Cc1ccccc1-n1c(=O)cc(N2CCN(C(=O)c3ccco3)CC2)[nH]c1=O please.
OUTPUT: 13.5

INPUT: Quote inhibition reported for CCC(C)(C)NC(=O)CN(Cc1ccc2c(c1)OCO2)C(=O)CCC(=O)Nc1ccccn1 please.
OUTPUT: 12.5

INPUT: Quote inhibition reported for CC(=O)c1cnc2cc(-c3ccccc3)nn2c1C please.
OUTPUT: -65.5

INPUT: Quote inhibition reported for CN(C)S(=O)(=O)Nc1ccc(Br)cc1F please.
OUTPUT: 8.09

INPUT: Quote inhibition reported for CCc1nnc(SCC(=O)NC2CCCCC2)nc1CC please.
OUTPUT: -5.14

INPUT: Quote inhibition reported for COC(=O)Oc1c(Br)c(=O)oc2ccccc12 please.
OUTPUT: -15.5

INPUT: Quote inhibition reported for CCOC(=O)CNC(=O)CSc1nc(N)cc(N)n1 please.
OUTPUT: 1.91

INPUT: Quote inhibition reported for CCc1ccccc1NC(=O)CCc1nc(-c2ccc(C)cc2)no1 please.
OUTPUT: 14.1

INPUT: Quote inhibition reported for COc1cccc(CNc2nc3nc(C)c(Cl)c(C)n3n2)c1 please.
OUTPUT: -16.5
